System: prickly sida
Experiment description: Test F preemergence test
Type: in vivo, Sida spinosa
Test conditions: Preemergence; 31 g ai/ha; scale 0 to 100
As shown below, each of these compounds has a reported Plant response rating, Prickly Sida value.

See these solved cases before continuing.
>>> df
                                   compound  result
0  Cn1nc(C(F)(F)F)c(C[S+]([O-])c2cccc[n+]2[O-])c1Cl (centres unmarked)      20
1  Cc1cc[n+]([O-])c(S(=O)(=O)C(Cl)c2c(C(F)(F)F)nn(C)c2OCC(F)(F)F)c1 (racemic)      15
2  Cc1cc[n+]([O-])c(S(=O)(=O)Cc2c(C(F)(F)F)nn(C)c2OCC(F)(F)F)c1      75
3  Cc1cc([S+]([O-])Cc2c(C(F)(F)F)nn(C)c2OCC(F)(F)F)[n+]([O-])cc1Cl (centres unmarked)      80
4  CCn1nc(C(F)(F)F)c(C[S+]([O-])c2cc(C)cc[n+]2[O-])c1OCC(F)(F)F (racemic)      20
5  Cn1nc(C(F)(F)F)c(C[S+]([O-])c2ccc(F)c[n+]2[O-])c1OC(F)F (centres unmarked)       0

Data request: // query Plant response rating, Prickly Sida value for entry Cn1nc(C(F)(F)F)c(C[S+]([O-])c2ccc(Cl)c[n+]2[O-])c1OCC(F)F (centres unmarked)
Data returned: 20

Data request: // query Plant response rating, Prickly Sida value for entry Cn1nc(C(F)(F)F)c(C[S+]([O-])c2ccc(Cl)c[n+]2[O-])c1OC(F)F (centres unmarked)
Data returned: 80

Data request: // query Plant response rating, Prickly Sida value for entry CC(Oc1c(C[S+]([O-])c2ccc(Cl)c[n+]2[O-])c(C(F)(F)F)nn1C)C(F)(F)F (centres unmarked)
Data returned: 50

Data request: // query Plant response rating, Prickly Sida value for entry Cn1nc(C(F)(F)F)c(CS(=O)(=O)c2cccc[n+]2[O-])c1OC(F)F
Data returned: 0

Data request: // query Plant response rating, Prickly Sida value for entry Cc1cc[n+]([O-])c(S(=O)(=O)C(C)c2c(C(F)(F)F)nn(C)c2OC(F)F)c1 (centres unmarked)
Data returned: 70
